// reported koff for each item listed
tested on: T1, p5 peptide of EGFL7 (human)
T1 construct: also called Peptide P5
T1 peptide: RACSTYRTIYRTA
assay protocol: SPR (Biacore), IgG over immobilized P5 peptide at 37 C;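 note: IgG variants injected at 0.5–1000 nM (2-fold series), 3 min association and 3.5 min dissociation, reference flow cell subtracted, kinetics fitted with a 1:1 Langmuir model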
Give the quantity in s⁻¹, number only.

Example binders with recorded koff:
binder | koff, s⁻¹
18F7.v8 IgG (antibody, V domains shown, IgG; Kabat numbering) VH: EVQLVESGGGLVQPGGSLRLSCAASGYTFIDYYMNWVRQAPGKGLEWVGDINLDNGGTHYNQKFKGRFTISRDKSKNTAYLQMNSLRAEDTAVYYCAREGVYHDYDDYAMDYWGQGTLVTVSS VL: DIQMTQSPSSLSASVGDRVTITCRTSQSLVHINGITYLHWYQQKPGKAPKLLIYRVSNRFSGVPSRFSGSGSGTDFTLTISSLQPEDFATYYCVQSTHVPLTFGQGTKVEIK | 0.00102
18F7.v2 IgG (antibody, name in Kabat numbering, V domains shown, IgG; Kabat numbering; also called 18F7-K) VH: EVQLVESGGGLVQPGGSLRLSCAASGYTFIDYYMNWVRQAPGKGLEWVGDINLDNGGTHYNQKFKGRFTISRDKSKNTLYLQMNSLRAEDTAVYYCAREGVYHDYDDYAMDYWGQGTLVTVSS VL: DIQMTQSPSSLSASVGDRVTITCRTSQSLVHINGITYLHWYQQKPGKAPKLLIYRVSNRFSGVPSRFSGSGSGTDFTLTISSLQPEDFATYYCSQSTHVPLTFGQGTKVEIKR | 0.00119
18F7.v6I IgG (antibody, V domains shown, IgG; Variant of 18F7.v6) VH: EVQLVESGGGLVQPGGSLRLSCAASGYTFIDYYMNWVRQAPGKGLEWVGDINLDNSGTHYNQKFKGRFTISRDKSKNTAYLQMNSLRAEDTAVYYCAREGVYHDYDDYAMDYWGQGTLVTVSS VL: DIQMTQSPSSLSASVGDRVTITCRTSQSLVHIQGITYLHWYQQKPGKAPKLLIYRVSNRFSGVPSRFSGSGSGTDFTLTISSLQPEDFATYYCGQSTHVPLTFGQGTKVEIK | 0.00316

### Prompt I'd like to know its koff. The binder in question is 18F7.v5 IgG (antibody, V domains shown, IgG; Kabat numbering) VH: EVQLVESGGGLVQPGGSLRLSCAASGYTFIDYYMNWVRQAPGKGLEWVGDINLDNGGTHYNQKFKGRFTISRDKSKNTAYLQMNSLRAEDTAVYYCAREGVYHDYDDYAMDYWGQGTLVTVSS VL: DIQMTQSPSSLSASVGDRVTITCRTSQSLVHINGITYLHWYQQKPGKAPKLLIYRVSNRGSGVPSRFSGSGSGTDFTLTISSLQPEDFATYYCSQSTHVPLTFGQGTKVEIK
### Response 0.000892

### Prompt I'd like to know its koff. The binder in question is 18F7.v9 IgG (antibody, V domains shown, IgG; Kabat numbering) VH: EVQLVESGGGLVQPGGSLRLSCAASGYTFIDKYMNWVRQAPGKGLEWVGDINLDNGGTHYNQKFKGRFTISRDKSKNTAYLQMNSLRAEDTAVYYCAREGVYHDYDDYAMDYWGQGTLVTVSS VL: DIQMTQSPSSLSASVGDRVTITCRTSQSLVHINGITYLHWYQQKPGKAPKLLIYRVSNRFSGVPSRFSGSGSGTDFTLTISSLQPEDFATYYCSQSTHVPLTFGQGTKVEIK
### Response 0.000763

### Prompt I'd like to know its koff. The binder in question is 18F7.v6J IgG (antibody, V domains shown, IgG; Variant of 18F7.v6) VH: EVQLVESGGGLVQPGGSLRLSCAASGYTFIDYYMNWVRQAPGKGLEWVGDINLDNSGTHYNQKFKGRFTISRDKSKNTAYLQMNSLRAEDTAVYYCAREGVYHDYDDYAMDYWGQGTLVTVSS VL: DIQMTQSPSSLSASVGDRVTITCRTSQSLVHINSITYLHWYQQKPGKAPKLLIYRVSNRFSGVPSRFSGSGSGTDFTLTISSLQPEDFATYYCGQSTHVPLTFGQGTKVEIK
### Response 0.000607

### Prompt I'd like to know its koff. The binder in question is 18F7.v3 IgG (antibody, name in Kabat numbering, V domains shown, IgG; Kabat numbering; also called 18F7-KA) VH: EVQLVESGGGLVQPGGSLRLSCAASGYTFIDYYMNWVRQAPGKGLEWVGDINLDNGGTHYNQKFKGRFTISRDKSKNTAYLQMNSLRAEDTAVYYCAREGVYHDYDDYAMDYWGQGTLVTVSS VL: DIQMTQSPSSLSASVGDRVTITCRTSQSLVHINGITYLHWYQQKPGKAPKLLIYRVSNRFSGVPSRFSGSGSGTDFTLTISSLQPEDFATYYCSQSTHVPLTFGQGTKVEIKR
### Response 0.000858

### Prompt I'd like to know its koff. The binder in question is 18F7.v1 IgG (18F7-graft) (antibody, V domains shown, Expressed as IgG) VH: EVQLVESGGGLVQPGGSLRLSCAASGYTFIDYYMNWVRQAPGKGLEWVGDINLDNGGTHYNQKFKGRFTISRDNSKNTLYLQMNSLRAEDTAVYYCAREGVYHDYDDYAMDYWGQGTLVTVSS VL: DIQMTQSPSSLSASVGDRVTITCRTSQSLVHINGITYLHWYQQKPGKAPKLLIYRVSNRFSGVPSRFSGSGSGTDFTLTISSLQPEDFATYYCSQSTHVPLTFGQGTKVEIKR
### Response 0.002

### Prompt I'd like to know its koff. The binder in question is 18F7.v6K IgG (antibody, V domains shown, IgG; also called hu18F7.v6k; h18F7.v6k) VH: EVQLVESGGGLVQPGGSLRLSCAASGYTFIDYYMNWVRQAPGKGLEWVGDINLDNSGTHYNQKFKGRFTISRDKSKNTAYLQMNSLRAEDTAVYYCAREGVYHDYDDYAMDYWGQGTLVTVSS VL: DIQMTQSPSSLSASVGDRVTITCRTSQSLVHINAITYLHWYQQKPGKAPKLLIYRVSNRFSGVPSRFSGSGSGTDFTLTISSLQPEDFATYYCGQSTHVPLTFGQGTKVEIKR
### Response 0.000662

### Prompt I'd like to know its koff. The binder in question is 18F7.v6E IgG (antibody, V domains shown, IgG; Variant of 18F7.v6) VH: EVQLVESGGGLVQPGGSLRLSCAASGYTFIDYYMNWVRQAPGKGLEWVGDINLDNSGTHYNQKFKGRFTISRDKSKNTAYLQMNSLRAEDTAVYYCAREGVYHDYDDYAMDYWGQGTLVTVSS VL: DIQMTQSPSSLSASVGDRVTITCRTSQSLVHISGITYLHWYQQKPGKAPKLLIYRVSNRFSGVPSRFSGSGSGTDFTLTISSLQPEDFATYYCGQSTHVPLTFGQGTKVEIK
### Response 0.00154

Reference source for all entries: patent US20140051120A1
